The measurements presented in this section are drawn from the supplement of paper PMC10724198.

System: Saccharomyces cerevisiae;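 note: PSI is a weighted mean of sequencing reads over stability bins, variants kept only with over 10 reads, mCherry proximal and sfGFP distal, peptide attached via GGGS linker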
Assay: protein stability index of tFT-peptide fusion (C-terminal peptide) (PSI (0-1 scale)); higher = more stable (slower turnover)
Details: genetic background: wild type; temperature: 30 C
Decide using protein stability index: a value greater than or equal to 0.7 is Condition met, a smaller one is Condition not met.

Prompt line: Would you say `LYTTLCLRSPPH` shows protein stability index at minimum 0.7?
Response line: Condition not met

Prompt line: Would you say `EWALAESGYDEP` shows protein stability index at minimum 0.7?
Response line: Condition met

Prompt line: Would you say `LVVAVLKIIMSS` shows protein stability index at minimum 0.7?
Response line: Condition not met

Prompt line: Would you say `EIKGKLQEGRMD` shows protein stability index at minimum 0.7?
Response line: Condition met

Prompt line: Would you say `SHWCLQTQAACK` shows protein stability index at minimum 0.7?
Response line: Condition not met

Prompt line: Would you say `SACCNFAPAFGQ` shows protein stability index at minimum 0.7?
Response line: Condition not met

Prompt line: Would you say `RTAVFLTRRYGT` shows protein stability index at minimum 0.7?
Response line: Condition not met

Prompt line: Would you say `RLIPYPPPLSLP` shows protein stability index at minimum 0.7?
Response line: Condition met

Prompt line: Would you say `EKLRGRKKGELQ` shows protein stability index at minimum 0.7?
Response line: Condition not met

Prompt line: Would you say `LLRRFSLLPPPL` shows protein stability index at minimum 0.7?
Response line: Condition not met

Prompt line: Would you say `FILLHLLGTIRS` shows protein stability index at minimum 0.7?
Response line: Condition not met

Prompt line: Would you say `LASYSSCYIRDF` shows protein stability index at minimum 0.7?
Response line: Condition met

Prompt line: Would you say `PPSRDRATSPSE` shows protein stability index at minimum 0.7?
Response line: Condition not met
